Would you mind telling me the reported pKd of each entry?
Tested System: T1, Dimeric human CD48-mFc (human)
T1 chain: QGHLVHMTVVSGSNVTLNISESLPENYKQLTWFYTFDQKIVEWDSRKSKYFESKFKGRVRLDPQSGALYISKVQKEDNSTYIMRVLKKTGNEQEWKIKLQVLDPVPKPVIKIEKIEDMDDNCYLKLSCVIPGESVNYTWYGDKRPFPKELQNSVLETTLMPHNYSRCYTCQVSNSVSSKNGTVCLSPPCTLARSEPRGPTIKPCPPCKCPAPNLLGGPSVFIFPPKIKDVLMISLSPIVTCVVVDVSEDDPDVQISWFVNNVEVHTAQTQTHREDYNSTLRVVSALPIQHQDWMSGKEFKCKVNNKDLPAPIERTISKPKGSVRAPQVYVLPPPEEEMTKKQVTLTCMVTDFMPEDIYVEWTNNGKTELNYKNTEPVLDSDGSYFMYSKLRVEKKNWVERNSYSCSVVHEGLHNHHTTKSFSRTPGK
Measurement Protocol: SPR (Biacore T100), 25 C, antibody captured by anti-Fc, dimeric CD48-mFc in solution
pKd is defined as minus the log10 of a concentration measured in mol/L.

Query block: GET /values?readout=pKd&item= H4H1707N (antibody, human IgG4, V domains shown, Human IgG4 Fc (prefix H4H)) VH: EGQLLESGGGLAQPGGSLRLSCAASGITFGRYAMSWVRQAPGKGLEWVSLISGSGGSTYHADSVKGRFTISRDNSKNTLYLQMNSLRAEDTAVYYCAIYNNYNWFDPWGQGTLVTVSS VL: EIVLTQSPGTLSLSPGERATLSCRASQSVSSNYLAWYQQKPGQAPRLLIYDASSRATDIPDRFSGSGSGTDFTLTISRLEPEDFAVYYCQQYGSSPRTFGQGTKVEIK
Result block: 10.13

Query block: GET /values?readout=pKd&item= H2M1710N (antibody, mouse IgG2, V domains shown, Human variable domains, mouse IgG2 Fc (prefix H2M)) VH: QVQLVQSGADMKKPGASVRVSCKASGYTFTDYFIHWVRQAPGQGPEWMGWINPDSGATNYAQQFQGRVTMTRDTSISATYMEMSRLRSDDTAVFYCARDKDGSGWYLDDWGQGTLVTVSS VL: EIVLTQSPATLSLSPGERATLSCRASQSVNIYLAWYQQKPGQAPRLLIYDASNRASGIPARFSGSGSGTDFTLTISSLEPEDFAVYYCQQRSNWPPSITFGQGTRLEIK
Result block: 9.08
